Values were extracted from paper PMC6161044.

target: GalNAc-T4 (polypeptide GalNAc-transferase 4), wild type, residues 36-578 (human, UniProt Q8N4A0 36-578); test: SPR
Sequence (Q8N4A0 36-578): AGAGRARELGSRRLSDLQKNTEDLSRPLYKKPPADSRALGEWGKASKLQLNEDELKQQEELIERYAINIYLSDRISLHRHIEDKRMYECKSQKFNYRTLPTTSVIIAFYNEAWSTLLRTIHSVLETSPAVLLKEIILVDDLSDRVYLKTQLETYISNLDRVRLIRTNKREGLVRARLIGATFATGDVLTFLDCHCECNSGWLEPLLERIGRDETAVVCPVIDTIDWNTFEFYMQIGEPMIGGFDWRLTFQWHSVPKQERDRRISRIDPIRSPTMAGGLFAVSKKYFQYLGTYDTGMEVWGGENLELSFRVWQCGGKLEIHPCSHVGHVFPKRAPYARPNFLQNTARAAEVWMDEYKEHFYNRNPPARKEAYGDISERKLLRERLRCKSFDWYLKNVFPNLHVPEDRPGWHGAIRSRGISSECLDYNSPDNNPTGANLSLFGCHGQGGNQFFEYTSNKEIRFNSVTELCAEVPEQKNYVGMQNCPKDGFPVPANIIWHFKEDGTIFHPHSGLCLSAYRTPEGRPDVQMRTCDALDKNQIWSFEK
Ends that are not written are not given here.
readout_label: Kd (µM)

binder="GATGAGAGAGTTPGPG (not fully specified (residues 3, 11); printed as GAT*GAGAGAGT*TPGPG) [diglycopeptide 6, GAT*GAGAGAGT*TPGPG]" readout_label=Kd units_of_measure=µM val=70
